Test: in vitro
Design: Viability of infected HeLa host cells, resazurin conversion, bulk resorufin fluorescence relative to DMSO
Conditions: human, hela cells; bulk resorufin, mean of 3
Quick list: viability at 28.5 h, 0.111 µM per entry.

- compound: "Cc1noc(-c2ccc3c(c2O)OCCO3)c1-c1ccc(Cl)cc1 [c20e]"
  uom: "%"
  viability at 28.5 h, 0.111 µM: 86.5
- compound: "c1c(C2CC2)[nH]c2nc(N3CCCC3)nc(N3CCCC3)c12 [c7e]"
  uom: "%"
  viability at 28.5 h, 0.111 µM: 85.9
- compound: "CC(=O)Nc1ccc(-c2cccc(COC3CCN(C(=O)c4ccc(OC(C)C)cc4)CC3)c2)cc1 [c36e]"
  uom: "%"
  viability at 28.5 h, 0.111 µM: 89.4
- compound: "COCCNc1nc2c(c(N3CCCCCC3)n1)CCNCC2 [c18e]"
  uom: "%"
  viability at 28.5 h, 0.111 µM: 106
- compound: "CCOc1ccc2nc(NC(=N)N)nc(C)c2c1 [c37e]"
  uom: "%"
  viability at 28.5 h, 0.111 µM: 91.1
- compound: "CN(C)c1ccc(Nc2nc(NCCO)c3ccccc3n2)cc1 [c27e]"
  uom: "%"
  viability at 28.5 h, 0.111 µM: 89.1
- compound: "CCC1C(c2ccc(C)cc2)=CCC(C(=O)NCCCN(C)C)C1C (stereo not shown) [c30e]"
  uom: "%"
  viability at 28.5 h, 0.111 µM: 97.1
